Test: NCI Yeast Anticancer Drug Screen. Data for the mec2-1 strain (AID 157)
Conditions: S. cerevisiae mec2-1 strain, at 50.0 µM (retest, dose inferred, filed as 5.0), stronger effect = higher value
The panel holds about 79,000 compounds, 15% with a hit somewhere; the sample as a whole holds those more often.
endpointName: growth inhibition (%)
Report only the number, with the unit % understood.

// known answers, use as guide
C[n+]1c(/C=C/c2ccccc2Cl)sc2ccccc21: 99
O=C1SC(c2ccccc2)=S=C1c1ccccc1: 39
O=C1/C(=C/c2ccccc2[N+](=O)[O-])COc2ccccc21: 96
COc1ccc(C(=O)C(CN2CCOCC2)CN2CCOCC2)cc1: -6
COc1ccc(C(c2cc3c(cc2O)OCO3)N2CCCC2)c(OC)c1 (centres undefined): 97
CC(C)c1c(P(=O)(c2ccccc2)c2ccccc2)n(C)c2ccccc12: 98
CCCCCOCC(=O)OC: 5
COC12C(COC(N)=O)C3=C(C(=O)C(C)=C(N)C3=O)N1CC1C2N1C(=O)/C=C/c1ccccc1 (centres undefined): 82
COc1ccc(C2CC(c3c(O)ccc4ccccc34)=NN2)cc1OC (centres undefined): 97
O=C(O)c1nnsc1-c1ccc(-c2snnc2C(=O)O)cc1: 18

growth inhibition reported for this molecule `Cc1cc2nc(CC(=O)c3ccc4ccccc4c3)c(=O)[nH]c2cc1C` : 9

Kindly note the recorded growth inhibition for `NC(=O)C12OC3CC(CC(C3)O1)O2` , which is -17

Lookup result for `COC(=O)/C=N/O` ; measured growth inhibition: -6
